As shown below, each of these molecules has a reported log10 of MIC value.
Tested on: Streptococcus pneumoniae
Assay: Antibacterial activity against Streptococcus pneumoniae by agar dilution method
Format: functional
measurement-label: log10 of MIC (log10 of the value in µg/mL)

smiles-text: CN[C@H](CC(C)C)C(=O)N[C@H]1C(=O)N[C@@H](CC(N)=O)C(=O)N[C@H]2C(=O)N[C@H]3C(=O)N[C@H](C(=O)N[C@H](C(=O)O)c4cc(O)cc(O)c4-c4cc3ccc4O)[C@H](O)c3ccc(c(Cl)c3)Oc3cc2cc(c3O[C@@H]2O[C@H](CO)[C@@H](O)[C@H](O)[C@H]2O[C@H]2C[C@](C)(N)[C@H](O)[C@H](C)O2)Oc2ccc(cc2Cl)[C@H]1O
log10 of MIC: -0.30
--
smiles-text: Cc1cn(C[C@H]2CN(c3ccc(N4CCN(C(=O)C(Cl)Cl)CC4)c(F)c3)C(=O)O2)nn1
log10 of MIC: 0.00
--
smiles-text: Cc1cn(C[C@H]2CN(c3ccc(N4CCN(C(=O)CC(C)C)CC4)c(F)c3)C(=O)O2)nn1
log10 of MIC: 0.60
--
smiles-text: Cc1cn(C[C@H]2CN(c3ccc(N4CCN(C(=O)C(C)C)CC4)c(F)c3)C(=O)O2)nn1
log10 of MIC: 0.30
--
smiles-text: O=C1O[C@@H](Cn2ccnn2)CN1c1ccc(N2CCOCC2)c(F)c1
log10 of MIC: -0.30
--
smiles-text: Cc1cn(C[C@H]2CN(c3ccc(N4CCN(C(=O)c5ccccc5)CC4)c(F)c3)C(=O)O2)nn1
log10 of MIC: 0.60
--
smiles-text: Cc1cn(C[C@H]2CN(c3ccc(N4CCN(C(=O)C(Cl)(Cl)Cl)CC4)c(F)c3)C(=O)O2)nn1
log10 of MIC: 0.60
--
smiles-text: Cc1cn(C[C@H]2CN(c3ccc(N4CCOCC4)c(F)c3)C(=O)O2)nn1
log10 of MIC: 0.00
--
smiles-text: Cc1cn(C[C@H]2CN(c3ccc(N4CCN(C(=O)OC(C)(C)C)CC4)c(F)c3)C(=O)O2)nn1
log10 of MIC: 0.90

----------
Examples of compounds with documented MIC follow.
Tested on: Staphylococcus aureus
Assay: Antibacterial activity against Staphylococcus aureus ATCC 25923 by agar dilution method
Format: functional
measurement-label: MIC (µg/mL)

compound: Cc1cn(C[C@H]2CN(c3ccc(N4CCN(C(=O)C(Cl)(Cl)Cl)CC4)c(F)c3)C(=O)O2)nn1
measurement-label: MIC
scale-unit: µg/mL
measured-result: 1
//
compound: CCC(=O)N1CCN(c2ccc(N3C[C@H](Cn4cc(C)nn4)OC3=O)cc2F)CC1
measurement-label: MIC
scale-unit: µg/mL
measured-result: 2
//
compound: Cc1cn(C[C@H]2CN(c3ccc(N4CCN(C(=O)CC5CC6CCC5C6)CC4)c(F)c3)C(=O)O2)nn1 (some centres undefined)
measurement-label: MIC
scale-unit: µg/mL
measured-result: 4
//
compound: Cc1cn(C[C@H]2CN(c3ccc(N4CCN(C(=O)C(F)(F)F)CC4)c(F)c3)C(=O)O2)nn1
measurement-label: MIC
scale-unit: µg/mL
measured-result: 4

----------
MIC by entry:
Tested on: Streptococcus pneumoniae
Test: Antibacterial activity against Streptococcus pneumoniae by agar dilution method
Assay type: functional
measurement-label: MIC (µg/mL)

smiles-text: Cc1cn(C[C@H]2CN(c3ccc(N4CCNCC4)c(F)c3)C(=O)O2)nn1.O=C(O)C(F)(F)F
measured-result: 2
//
smiles-text: Cc1cn(C[C@H]2CN(c3ccc(N4CCN(C(=O)C5CCCCC5)CC4)c(F)c3)C(=O)O2)nn1
measured-result: 4
//
smiles-text: Cc1cn(C[C@H]2CN(c3ccc(N4CCN(C(=O)C5CCCC5)CC4)c(F)c3)C(=O)O2)nn1
measured-result: 4
//
smiles-text: Cc1cn(C[C@H]2CN(c3ccc(N4CCN(C(=O)/C=C/c5ccccc5)CC4)c(F)c3)C(=O)O2)nn1
measured-result: 8
//
smiles-text: CCC(=O)N1CCN(c2ccc(N3C[C@H](Cn4cc(C)nn4)OC3=O)cc2F)CC1
measured-result: 1
//
smiles-text: Cc1cn(C[C@H]2CN(c3ccc(N4CCN(C(=O)C(F)(F)F)CC4)c(F)c3)C(=O)O2)nn1
measured-result: 1
//
smiles-text: CCSC(=O)N1CCN(c2ccc(N3C[C@H](Cn4cc(C)nn4)OC3=O)cc2F)CC1
measured-result: 2
//
smiles-text: CCCCCC(=O)N1CCN(c2ccc(N3C[C@H](Cn4cc(C)nn4)OC3=O)cc2F)CC1
measured-result: 8
//
smiles-text: CCOC(=O)N1CCN(c2ccc(N3C[C@H](Cn4cc(C)nn4)OC3=O)cc2F)CC1
measured-result: 4
